target: UniProt P46925; assay: Inhibition of Plasmodium falciparum plasmepsin 2 by FRET assay
Sequence (P46925 whole entry): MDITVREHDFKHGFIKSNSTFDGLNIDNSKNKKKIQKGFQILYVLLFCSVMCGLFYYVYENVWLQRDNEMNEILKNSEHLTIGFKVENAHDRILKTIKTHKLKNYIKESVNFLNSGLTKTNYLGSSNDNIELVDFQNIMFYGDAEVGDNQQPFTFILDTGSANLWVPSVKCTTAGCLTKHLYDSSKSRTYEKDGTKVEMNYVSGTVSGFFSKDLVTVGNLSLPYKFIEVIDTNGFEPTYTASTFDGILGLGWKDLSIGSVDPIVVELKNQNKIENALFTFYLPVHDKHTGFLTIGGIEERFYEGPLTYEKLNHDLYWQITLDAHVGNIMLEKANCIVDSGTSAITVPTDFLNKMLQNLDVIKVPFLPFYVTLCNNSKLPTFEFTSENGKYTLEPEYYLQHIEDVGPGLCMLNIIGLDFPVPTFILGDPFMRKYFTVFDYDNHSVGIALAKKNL
Reported log10(IC50) by item:
assay.endpoint: log10(IC50) (log10 of the value in µM)

[[record]]
molecule = "c1ccc2c(CCOc3cc4c(cc3CCCSc3nc5ccccc5s3)C3CCC4N3)cccc2c1 (stereo unspecified)"
assay_endpoint = "log10(IC50)"
val = 0.60

[[record]]
molecule = "c1ccc(-c2nnc(SCCOc3cc4c(cc3OCCc3cccc5ccccc35)C3CCC4N3)o2)cc1 (stereo unspecified)"
assay_endpoint = "log10(IC50)"
val = 1.90

[[record]]
molecule = "COc1cc2c(cc1OCCc1cccc3ccccc13)C1CCC2N1 (stereo unspecified)"
assay_endpoint = "log10(IC50)"
val = 1.38

[[record]]
molecule = "CCCCCc1ccc(N(CC2CCC(O)C(F)(F)C2)C(=O)Cc2ccc3ccccc3c2)cc1 (stereo unspecified)"
assay_endpoint = "log10(IC50)"
val = 0.85

[[record]]
molecule = "c1ccc2c(CCOc3cc4c(cc3OCCSc3nc5ccccc5s3)C3CCC4N3)cccc2c1 (stereo unspecified)"
assay_endpoint = "log10(IC50)"
val = 0.48

[[record]]
molecule = "Clc1ccc2sc(SCCCc3cc4c(cc3OCCc3cccc5ccccc35)C3CCC4N3)nc2c1 (stereo unspecified)"
assay_endpoint = "log10(IC50)"
val = 0.30


###

biological target: Plasmepsin 4 (Plasmodium falciparum); experiment: Inhibition of Plasmodium falciparum plasmepsin 4 using fluorescently labeled peptide substrate by fluorescence method
Sequence (Q17SB2 whole entry): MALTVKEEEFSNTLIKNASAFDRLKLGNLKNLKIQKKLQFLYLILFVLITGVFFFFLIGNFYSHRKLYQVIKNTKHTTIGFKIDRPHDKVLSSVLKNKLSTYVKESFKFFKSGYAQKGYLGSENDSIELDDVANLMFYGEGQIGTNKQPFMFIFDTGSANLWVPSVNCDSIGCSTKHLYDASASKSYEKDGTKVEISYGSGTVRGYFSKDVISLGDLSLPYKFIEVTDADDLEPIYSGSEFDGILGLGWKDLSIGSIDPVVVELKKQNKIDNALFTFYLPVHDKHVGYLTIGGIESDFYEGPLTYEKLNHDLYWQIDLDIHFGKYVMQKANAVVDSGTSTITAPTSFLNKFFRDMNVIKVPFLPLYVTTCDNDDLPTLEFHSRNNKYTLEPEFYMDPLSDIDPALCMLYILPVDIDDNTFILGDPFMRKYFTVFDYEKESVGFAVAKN
pIC50: −log10 of the molar value.
Recorded pIC50 by entry
assay.endpoint: pIC50

[[record]]
compound = "CCCCCCc1ccc(S(=O)(=O)[C@@H]2[C@H](NCc3cccc(Br)c3)[C@@H]3CC[C@H]2N3)cc1"
val = 8.00

[[record]]
compound = "CCCCCCCc1ccc(S(=O)(=O)C2C3CCC(N3)C2NCc2ccc3ccccc3c2)cc1 (stereo not drawn)"
val = 6.68

[[record]]
compound = "O=S(=O)(c1ccc(CCCCC2CCCCC2)cc1)C1C2CCC(N2)C1NCc1ccc2ccccc2c1 (stereo not drawn)"
val = 6.12

[[record]]
compound = "CCCCCCCCCCCc1ccc(S(=O)(=O)C2C3CCC(N3)C2NCc2ccc3ccccc3c2)cc1 (stereo not drawn)"
val = 5.27

[[record]]
compound = "CCCCCCCCc1ccc(S(=O)(=O)C2C3CCC(N3)C2NCc2ccc3ccccc3c2)cc1 (stereo not drawn)"
val = 6.37

[[record]]
compound = "CCCCCCCCCCc1ccc(S(=O)(=O)C2C3CCC(N3)C2NCc2ccc3ccccc3c2)cc1 (stereo not drawn)"
val = 5.50

[[record]]
compound = "O=S(=O)(c1ccc(CCCCC2CCCC2)cc1)C1C2CCC(N2)C1NCc1ccc2ccccc2c1 (stereo not drawn)"
val = 6.68

[[record]]
compound = "CCCCc1ccc(S(=O)(=O)C2C3CCC(N3)C2NCc2ccc3ccccc3c2)cc1 (stereo not drawn)"
val = 5.83

[[record]]
compound = "CCCCCc1ccc(S(=O)(=O)C2C3CCC(N3)C2NCc2ccc3ccccc3c2)cc1 (stereo not drawn)"
val = 6.62

[[record]]
compound = "O=S(=O)(c1ccc(CCCCC2CCC2)cc1)C1C2CCC(N2)C1NCc1ccc2ccccc2c1 (stereo not drawn)"
val = 6.74

[[record]]
compound = "CCCCCCc1ccc(S(=O)(=O)C2C3CCC(N3)C2NCc2ccc3ccccc3c2)cc1 (stereo not drawn)"
val = 7.30

[[record]]
compound = "CCCCCCCCCc1ccc(S(=O)(=O)C2C3CCC(N3)C2NCc2ccc3ccccc3c2)cc1 (stereo not drawn)"
val = 5.87

[[record]]
compound = "CC(C)CCCCc1ccc(S(=O)(=O)C2C3CCC(N3)C2NCc2ccc3ccccc3c2)cc1 (stereo not drawn)"
val = 7.05

